Data origin, for the record: paper PMC9301969

- target: human serum albumin (HSA, nonglycated) (Homo sapiens)
- Sequence (P02768 25-609): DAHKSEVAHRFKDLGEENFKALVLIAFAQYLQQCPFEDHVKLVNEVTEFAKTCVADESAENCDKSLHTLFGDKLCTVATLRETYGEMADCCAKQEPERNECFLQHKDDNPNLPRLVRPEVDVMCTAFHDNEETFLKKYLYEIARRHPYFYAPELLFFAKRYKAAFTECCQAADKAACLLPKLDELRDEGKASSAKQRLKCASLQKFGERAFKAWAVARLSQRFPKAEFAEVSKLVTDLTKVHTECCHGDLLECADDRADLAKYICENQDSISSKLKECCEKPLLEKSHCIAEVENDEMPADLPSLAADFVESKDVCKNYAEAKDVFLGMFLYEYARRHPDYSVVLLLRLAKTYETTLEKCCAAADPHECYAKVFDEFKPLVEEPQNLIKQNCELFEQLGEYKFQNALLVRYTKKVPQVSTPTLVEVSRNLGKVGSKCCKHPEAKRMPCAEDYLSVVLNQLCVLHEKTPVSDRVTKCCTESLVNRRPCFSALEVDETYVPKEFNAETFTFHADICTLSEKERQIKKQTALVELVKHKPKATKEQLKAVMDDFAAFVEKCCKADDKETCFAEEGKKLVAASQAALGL
- protocol-summary: fluorescence polarization
- Assay type: binding
experimental-readout: Kd (nM)
Return type: number; implicit unit nM.

## Task Output measured Kd for this item: O=C(O)CCN(Cc1ccc(C(F)(F)F)cc1B(O)O)Cc1c2ccccc2c(CN(CCC(=O)O)Cc2ccc(C(F)(F)F)cc2B(O)O)c2ccccc12 [compound 8]
## Result 2000
